tested on: GOPC, Q9HD26
assay text: holdup assay
Set-up: key: below the threshold = too weak to quantify, mostly under pKd 3.1 to 4
run conditions: plain residues with an end cap or a label only (N-terminal biotin on a linker: ado-ado)
measured attribute: pKd

>>> observed("SFISKKEWYV [NECTIN1, Q15223]")
"below the threshold"
>>> observed("DPAESMESLV [PTPRG, P23470]")
"below the threshold"
>>> observed("ARESQKVSHV [FAM110B, Q8TC76]")
3.98
>>> observed("ARGPPRESEV [FAM110D, Q8TAY7]")
3.51
>>> observed("SPDRDRESIV [SCN5A, Q14524]")
3.7
>>> observed("LESTTVGTSV [KARS1, Q15046]")
"below the threshold"
>>> observed("EPQYQPGENL [SRC, P12931]")
"below the threshold"
>>> observed("NNNVVKVDSV [MTNR1A, P48039]")
"below the threshold"
